- Method: Stability in human microsomes assessed as half life
- Type: ADME, Microsome
Readout: half-life (min)
Only the number, expressed in min, is required.

Prompt: Suppose we examine the compound CCCCC/C=C\C/C=C\CCCCCCCCOC(=O)[C@H](C)NP(=O)(OC[C@H]1O[C@@](C#N)(c2ccc3c(N)ncnn23)[C@H](O)[C@@H]1O)Oc1cccc2ccccc12 (stereo partly specified) ; what half-life value has been reported?
Response: 19.7

Prompt: Same again, this time with CCCCCCCCCCCCOC(=O)[C@H](C)NP(=O)(OC[C@H]1O[C@@](C#N)(c2ccc3c(N)ncnn23)[C@H](O)[C@@H]1O)Oc1ccccc1 (stereo partly specified)
Response: 4.29

Prompt: What about this compound? CCCCCCCCCCCCOC(=O)[C@H](C)NP(=O)(OC[C@H]1O[C@@](C#N)(c2ccc3c(N)ncnn23)[C@H](O)[C@@H]1O)Oc1cccc2ccccc12 (stereo partly specified)
Response: 6.11

Prompt: Okay, and `CCC(CC)COC(=O)[C@H](C)N[P@](=O)(OC[C@H]1O[C@@](C#N)(c2ccc3c(N)ncnn23)[C@H](O)[C@@H]1O)Oc1ccccc1` ?
Response: 0.86

Prompt: Would you mind doing CCCCC/C=C\C/C=C\CCCCCCCCOC(=O)[C@H](C)NP(=O)(OC[C@H]1O[C@@](C#N)(c2ccc3c(N)ncnn23)[C@H](O)[C@@H]1O)Oc1ccccc1 (stereo partly specified) as well?
Response: 8.33

Prompt: Likewise for C[C@H](NP(=O)(OC[C@H]1O[C@@](C#N)(c2ccc3c(N)ncnn23)[C@H](O)[C@@H]1O)Oc1cccc2ccccc12)C(=O)OCc1ccccc1 (stereo partly specified) ?
Response: 1.05

====

- Method: Stability in mouse plasma assessed as half life
- Assay type: ADME, cell-free
Can you tell me half-life for the items I'm about to list?

Prompt: So what's the measured half-life for this one? CCCCC/C=C\C/C=C\CCCCCCCCOC(=O)[C@H](C)NP(=O)(OC[C@H]1O[C@@](C#N)(c2ccc3c(N)ncnn23)[C@H](O)[C@@H]1O)Oc1cccc2ccccc12 (some centres not stated)
Response: 3.44 min

Prompt: Same thing, different compound: CCCCC/C=C\C/C=C\CCCCCCCCOC(=O)[C@H](C)NP(=O)(OC[C@H]1O[C@@](C#N)(c2ccc3c(N)ncnn23)[C@H](O)[C@@H]1O)Oc1ccccc1 (some centres not stated)
Response: 1.03 min

====

- Method: Stability in human plasma assessed as half life
- Assay type: ADME, cell-free
Response field label: string, one of met (half-life strictly below 50 min) or not met.

Prompt: Criterion: half-life strictly below 50 min. Is it met by CCCCC/C=C\C/C=C\CCCCCCCCOC(=O)[C@H](C)NP(=O)(OC[C@H]1O[C@@](C#N)(c2ccc3c(N)ncnn23)[C@H](O)[C@@H]1O)Oc1cccc2ccccc12 (stereo partly specified) ?
Response: not met

Prompt: Same read-out for CCCCCCCCCCCCOC(=O)[C@H](C)NP(=O)(OC[C@H]1O[C@@](C#N)(c2ccc3c(N)ncnn23)[C@H](O)[C@@H]1O)Oc1cccc2ccccc12 (stereo partly specified) ?
Response: not met

Prompt: Request: `CCC(CC)COC(=O)[C@H](C)N[P@](=O)(OC[C@H]1O[C@@](C#N)(c2ccc3c(N)ncnn23)[C@H](O)[C@@H]1O)Oc1ccccc1`
Response: met

Prompt: Entry to check: CCCCCCCCCCCCOC(=O)[C@H](C)NP(=O)(OC[C@H]1O[C@@](C#N)(c2ccc3c(N)ncnn23)[C@H](O)[C@@H]1O)Oc1ccccc1 (stereo partly specified)
Response: met

Prompt: Thanks! And C[C@H](NP(=O)(OC[C@H]1O[C@@](C#N)(c2ccc3c(N)ncnn23)[C@H](O)[C@@H]1O)Oc1cccc2ccccc12)C(=O)OCc1ccccc1 (stereo partly specified) ?
Response: not met

Prompt: Let us now turn to CCCCC/C=C\C/C=C\CCCCCCCCOC(=O)[C@H](C)NP(=O)(OC[C@H]1O[C@@](C#N)(c2ccc3c(N)ncnn23)[C@H](O)[C@@H]1O)Oc1ccccc1 (stereo partly specified)
Response: not met

====

Kindly supply the reported half-life values for the records listed here.
- Method: Stability in mouse microsomes assessed as half life
- Type: ADME, Microsome
The figure you give is taken to be in min; do not add the unit.

Prompt: Fill in: half-life of CCCCC/C=C\C/C=C\CCCCCCCCOC(=O)[C@H](C)NP(=O)(OC[C@H]1O[C@@](C#N)(c2ccc3c(N)ncnn23)[C@H](O)[C@@H]1O)Oc1ccccc1 (some centres not stated) is ___
Response: 8.65

Prompt: Do the same for CCCCC/C=C\C/C=C\CCCCCCCCOC(=O)[C@H](C)NP(=O)(OC[C@H]1O[C@@](C#N)(c2ccc3c(N)ncnn23)[C@H](O)[C@@H]1O)Oc1cccc2ccccc12 (some centres not stated) please
Response: 13.6

====

- Method: Stability in hamster microsomes assessed as half life
- Format: ADME, Cricetulus griseus, Microsome
- Experimental Setup: chinese hamster
Think of 20 min as a floor: if half-life stands on it or above, it is satisfied; beneath it, not satisfied.

Prompt: Item CCCCCCCCCCCCOC(=O)[C@H](C)NP(=O)(OC[C@H]1O[C@@](C#N)(c2ccc3c(N)ncnn23)[C@H](O)[C@@H]1O)Oc1ccccc1 (stereo partly specified) with half-life of 20 min or above?
Response: not satisfied

Prompt: Next record, please: CCCCC/C=C\C/C=C\CCCCCCCCOC(=O)[C@H](C)NP(=O)(OC[C@H]1O[C@@](C#N)(c2ccc3c(N)ncnn23)[C@H](O)[C@@H]1O)Oc1ccccc1 (stereo partly specified)
Response: not satisfied

Prompt: Would you kindly repeat that for CCCCC/C=C\C/C=C\CCCCCCCCOC(=O)[C@H](C)NP(=O)(OC[C@H]1O[C@@](C#N)(c2ccc3c(N)ncnn23)[C@H](O)[C@@H]1O)Oc1cccc2ccccc12 (stereo partly specified) ?
Response: satisfied

Prompt: Then this compound: CCCCCCCCCCCCOC(=O)[C@H](C)NP(=O)(OC[C@H]1O[C@@](C#N)(c2ccc3c(N)ncnn23)[C@H](O)[C@@H]1O)Oc1cccc2ccccc12 (stereo partly specified)
Response: not satisfied

Prompt: Try CCC(CC)COC(=O)[C@H](C)N[P@](=O)(OC[C@H]1O[C@@](C#N)(c2ccc3c(N)ncnn23)[C@H](O)[C@@H]1O)Oc1ccccc1 [REMDESIVIR] next.
Response: not satisfied

Prompt: For C[C@H](NP(=O)(OC[C@H]1O[C@@](C#N)(c2ccc3c(N)ncnn23)[C@H](O)[C@@H]1O)Oc1cccc2ccccc12)C(=O)OCc1ccccc1 (stereo partly specified) then?
Response: not satisfied
